# credit: ChEMBL document CHEMBL4689842

# System: Fibroblast
# experiment.notes: Multiplex assay against human fibroblast
# Format: toxicity, cell-based
# measurement.conditions: 24 h, 10 µM, compound concentration 10 uM, replicate 1
Recorded Population Tubulin-Different-Phenotype (%) by entry
State the value, then name its unit.

compound: c1ccc2oc(-c3csc(C4CCN(Cc5nc6ncccc6[nH]5)CC4)n3)cc2c1
experimental.value: 2%
--
compound: CC(=O)c1cc(-c2cc(C(=O)NC3CC3)ccc2C)c2ncccn12
experimental.value: 65%
--
compound: Nc1ccc(C(=O)Nc2cccc(-c3nc(N4CCOCC4)c4oc5ncccc5c4n3)c2)cn1
experimental.value: 76%
--
compound: N#Cc1cnc(Nc2cc(NC[C@H]3CNCCO3)c(C(F)(F)F)cn2)cn1 [SRA-737]
experimental.value: 15%
--
compound: CCn1c(-c2nonc2N)nc2cnc(Oc3cccc(NC(=O)c4ccc(OCCN5CCOCC5)cc4)c3)cc21 [GSK-269962A]
experimental.value: 81%
--
compound: CN(C)CCOc1ccc(-c2nc(-c3ccncc3)c(-c3ccc4c(c3)CC/C4=N\O)[nH]2)cc1 [SB590885]
experimental.value: 9%
--
compound: Cc1cc2c(cc1N1C(=O)c3cccc4c(CCCO)ccc(c34)C1=O)n(C)c(=O)n2C
experimental.value: 45%
--
compound: COc1cc2c(NC3CCN(C(C)C)CC3)nc(N3CCC(F)(F)CC3)nc2cc1OCCCN1CCCC1
experimental.value: 43%

# Population Tubulin-Different-Phenotype (%) of CN(C)C/C=C/C(=O)Nc1cc2c(Nc3ccc(F)c(Cl)c3)ncnc2cc1O[C@H]1CCOC1.O=C(O)/C=C\C(=O)O.O=C(O)/C=C\C(=O)O [AFATINIB DIMALEATE] = 61%

# Population Tubulin-Different-Phenotype (%) of O=C(O)c1ccc2cc(-c3ccc(O)c(C45CC6CC(CC(C6)C4)C5)c3)ccc2c1 [O-DEMETHYLATED ADAPALENE] = 44%

# Population Tubulin-Different-Phenotype (%) of COc1ccc(NS(=O)(=O)c2sc3ccc(Cl)cc3c2C)cc1N1CCNCC1.Cl = 80%

# Population Tubulin-Different-Phenotype (%) of CNC(=O)c1cc(Oc2ccc(NC(=O)Nc3cc(C(C)(C)C)nn3-c3ccc4ncccc4c3)c(F)c2)ccn1 [REBASTINIB] = 54%

# Population Tubulin-Different-Phenotype (%) of CC(C)(C)c1cnc(CSc2cnc(NC(=O)C3CCNCC3)s2)o1 [BMS-387032] = 54%

# Population Tubulin-Different-Phenotype (%) of CCc1cc2c(cc1CC)CC(NC[C@H](O)c1ccc(O)c3[nH]c(=O)ccc13)C2 [INDACATEROL] = 77%

# Population Tubulin-Different-Phenotype (%) of COc1cc2c(Nc3ccc(NC(=O)c4ccccc4)cc3)ncnc2cc1OCCCN1CCOCC1 = 5%

# Population Tubulin-Different-Phenotype (%) of CNc1oc(-c2cccc3ccccc23)nc1C#N = 0%

# Population Tubulin-Different-Phenotype (%) of Cc1nc(Cc2cccc(C(F)(F)F)c2)sc1-c1ccc(C(N)=O)nc1 [TP-024n] = 58%
